Listed binders paired with reported pKd
biological target: SARS-CoV-2 spike protein with D614G mutation (SARS-CoV-2, UniProt P0DTC2 14-1208)
pKd: −log10 of the molar value.

[
  {
    "binder": "anti-SARS-CoV-2 antibody 1012 (antibody, V domains shown) VH: EVQVVESGGGLVQPGGSRRLSCTASGFTLRNYWMSWVRQAPGKGLEWVANIKQDGSEKYYVDSVKGRFTISRDNAKNSLYLQMDSLRAEDTAVYYCARGGRYCPGGSCPRWGRGTLVTVSS VL: DIQMTQSPSSLSASVGDRVTITCQASQDISNFLNWYQLKPGEAPTLLIFDASKLETGVPSRFSGTGFGTDFTFTISSLQPEDTATYYCQQYDDLTSITLGQGTRLEIK",
    "pKd": 10.57
  },
  {
    "binder": "anti-SARS-CoV-2 antibody 1037 (antibody, V domains shown) VH: QITLKESGPTLVKPTQTLTLTCTFSGFSLSTSGVGVGWIRQPPGKALEWLALIYWDDDKRYSPSLKSRLTITKDTSKNQVVLTMTNMDPVDTATYYCAHHTITRINDYWGQGTLVTVSS VL: QSALTQPASVSGSPGQSITISCTATSSDVGAYNYVSWYQQHPGKAPKLMIYDVSKRPSGVSNRFSGSKSGNTASLTISGLQAEDEADYYCSSYTSSSTVFGGGTKLTVL",
    "pKd": 10.64
  },
  {
    "binder": "anti-SARS-CoV-2 antibody 989 (antibody, V domains shown) VH: QVQLQESGPGLVKPSQTLSLTCTVSGGSISSGSYYWSWIRQPAGKGLEWIGRIYTSGSTNYNPSLKSRVTMSVDTSKNHFSLKLRSVTAADTAVYYCARGIAVAGDDDYYYYYGLDVWGQGTTVTVSS VL: SYELTQPPSVSVSPGQTARITCSGDALPKQYAYWYQQKPGQAPVMVINKDSERPSGIPERFSGSSSGTTVTLTISGVQAEDEADYYCHSADSSGTYWVFGGGTKLTVL",
    "pKd": 10.41
  }
]

Values compiled from patent US20210292393A1.
